- target_system: IDH1 R132H (Homo sapiens, UniProt O75874, R132H)
- Sequence (O75874 whole entry R132H): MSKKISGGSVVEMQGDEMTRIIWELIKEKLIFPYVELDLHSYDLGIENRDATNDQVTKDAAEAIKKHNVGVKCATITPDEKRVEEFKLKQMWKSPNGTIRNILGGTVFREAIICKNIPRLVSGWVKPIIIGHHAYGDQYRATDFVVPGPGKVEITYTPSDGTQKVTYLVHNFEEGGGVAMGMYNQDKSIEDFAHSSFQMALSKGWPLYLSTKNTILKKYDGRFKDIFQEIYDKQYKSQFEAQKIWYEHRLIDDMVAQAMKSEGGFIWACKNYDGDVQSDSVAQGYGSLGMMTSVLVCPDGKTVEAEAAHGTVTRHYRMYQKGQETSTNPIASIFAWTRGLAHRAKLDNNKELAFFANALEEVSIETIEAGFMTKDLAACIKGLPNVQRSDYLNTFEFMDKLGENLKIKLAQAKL
- experiment_description: IDH1 R132H enzymatic assay (NADPH depletion coupled to diaphorase/resazurin)
- Assay type: biochemical
- reported_conditions: IDH1 R132H enzymatic inhibition, IC50 class
- Procedure: Assays were conducted in a 1536-well black solid-bottom plate with a final assay volume of 9 μL. Specifically, for IDH1 R132H, 3 μL of enzyme (4 mM β-ME, 0.0005 mg/mL IDH1 R132H, 150 mM NaCl, 20 mM Tris pH 7.5, 10 mM MgCl2, 0.05% BSA) were added to the plate, followed by the addition of 23 nL of test compound in DMSO. […]
IC50 values, listed per item

In the examples that follow, each entry is paired with its recorded IC50.
{"columns": ["compound", "IC50"],
 "data": [
  ["CC1(C)CC(=O)c2cc(-c3nc(-c4ccc(Cl)cc4)cs3)c(=O)n(-c3ccccc3F)c2C1", "300 to 1000 nM"],
  ["COc1ncc(C)cc1-n1c(C=C(C)C)c(C(=O)N2CCNCC2)cc(-c2nc(-c3ccc(Cl)cc3)cs2)c1=O", "< 300 nM"],
  ["CCc1cccc(CC)c1-n1c(CC(C)C)c(C(=O)N[C@@H]2CCC[C@H]2O)cc(-c2nc(-c3ccc(Cl)cc3)cs2)c1=O", "1000 to 5000 nM"]
]}

Now consider the entry below.
Input line: Give IC50 for the following compound: CCc1cccc(CC)c1-n1c(CC(C)C)c(C(=O)N2CC(=O)N[C@H](C(=O)O)C2)cc(-c2nc(-c3ccc(Cl)cc3)cs2)c1=O
Output line: 300 to 1000 nM

###

- target_system: IDH1 R132C (Homo sapiens, UniProt O75874, R132C)
- Sequence (O75874 whole entry R132C): as the sequence (O75874 whole entry R132H) above, with H132C counted along it
- experiment_description: IDH1 R132C enzymatic assay (NADPH depletion coupled to diaphorase/resazurin)
- Type: biochemical
- reported_conditions: enzymatic inhibition, IDH1 R132C
IC50 values, listed per item

In the examples that follow, each entry is paired with its recorded IC50.
{"columns": ["compound", "result"],
 "data": [
  ["COc1ccc(CN2CCN(C)CC2)cc1-n1c2c(cc(-c3nc(-c4ccc(Cl)cc4)cs3)c1=O)C(=O)CCC2 [Compound 527]", "> 20000 nM"],
  ["CCc1cccc(CC)c1-n1c(-c2cccn2C)c(C(=O)N2CCNCC2)cc(-c2nc(-c3ccc(Cl)cc3)cs2)c1=O [Compound 518]", "< 300 nM"],
  ["CC1(C)CC(=O)c2cc(-c3nc(-c4ccc(Cl)cc4)cs3)c(=O)n(-c3cscc3C(N)=O)c2C1 [Compound 429]", "5000 to 20000 nM"],
  ["CCc1cccc(CC)c1-n1c(CC(C)C)c(C(=O)N2CCNCC2)cc(-c2nc(-c3ccc(Cl)c(Cl)c3)c(C)s2)c1=O [Compound 551]", "< 300 nM"],
  ["COc1ccc(C)cc1-n1c(C=C(C)C)c(C(=O)N2CCNCC2)cc(-c2nc(-c3ccc(Cl)cc3)cs2)c1=O [Compound 438]", "< 300 nM"]
]}

Input line: Report its IC50 with IDH1 R132C (Homo sapiens, UniProt O75874, R132C) as the test system: CCc1ccc(Cl)cc1-n1c(C=C(C)C)c(C(=O)N2CCNCC2)cc(-c2nc(-c3ccc(C(F)(F)F)nc3)cs2)c1=O [Compound 491]
Output line: < 300 nM

Input line: Report its IC50 with IDH1 R132C (Homo sapiens, UniProt O75874, R132C) as the test system: CCc1cccc(CC)c1-n1c(CC(C)C)c(C(=O)N2CCNCC2)cc(-c2nc(Nc3ccc(Cl)cc3)c(C)s2)c1=O [Compound 412]
Output line: 5000 to 20000 nM
